Target: folate receptors on KB cells (Homo sapiens, UniProt P15328)
Construct: endogenous in cells; host or cells: KB cells
Sequence (P15328 25-234): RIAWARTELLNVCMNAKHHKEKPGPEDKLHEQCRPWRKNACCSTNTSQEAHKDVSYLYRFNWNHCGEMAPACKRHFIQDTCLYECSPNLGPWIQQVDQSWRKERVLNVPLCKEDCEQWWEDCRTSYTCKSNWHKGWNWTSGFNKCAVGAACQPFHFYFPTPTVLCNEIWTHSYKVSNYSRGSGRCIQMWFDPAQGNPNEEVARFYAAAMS
Assay: Competitive binding assay using KB cells (displacement of 3H-folic acid)
Conditions: competitive binding at folate receptors on KB cells, 10 nM 3H-folic acid, 37° C., 1 h
Experimental: Competitive binding assay using KB cells. Relative binding affinity of the folate-fluoro-phenyl conjugate was evaluated according to the standard literature protocol by Westerhof et. al. (Mol Pharmacol, 1995, 48, 459-471) and C. P. Leamon et. al. (Bioconjugate Chem., 2006, 17 (5), 1226-1232) with minor modification. Then cells were rinsed three times with 250 μL of PBS (phosphate saline buffer) and one time with trichloro-acetic acid. […]
pKd: −log10 of the molar value.
RECORDED_ENDPOINT: pKd

1. Nc1nc2ncc(CNc3ccc(C(=O)N[C@@H](CCC(=O)NCCNC(=O)CCOCCOCCOCCOCCOCCOCCNC(=O)c4ccc(F)cc4)C(=O)O)cc3)nc2c(=O)[nH]1
7.62

# credit: patent US9180215B2
